src = the supplement of paper PMC11732987

# system under test: UCHL1 (UniProt P09936)
# Sequence (P09936 whole entry, looked up, the tested form may be a part): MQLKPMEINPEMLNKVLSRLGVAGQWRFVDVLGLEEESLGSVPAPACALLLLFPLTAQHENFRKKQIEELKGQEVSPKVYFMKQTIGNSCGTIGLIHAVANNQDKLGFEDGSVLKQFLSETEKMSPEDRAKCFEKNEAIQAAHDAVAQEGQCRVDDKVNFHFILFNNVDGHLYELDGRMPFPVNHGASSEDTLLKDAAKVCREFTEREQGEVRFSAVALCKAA
# assay name: log2 ratio of Biotin-Ahx-Ub-VS probe labelling (fragment/DMSO); higher = less target engagement (more negative = stronger competition), active = hit call of the paper (q ≤ 0.05, log2 ratio ≤ -1)
# experimental conditions: compound concentration: 200 uM; treatment time: 3 h
Labels: active, inactive

- compound: "Cc1cccn2cc(CCNC(=O)CCl)nc12.Cl"
  qualitative label: "active"
- compound: "O=C(CCl)Nc1ccc(Cl)c(F)c1"
  qualitative label: "active"
- compound: "Cc1nnc(C(NC(=O)CCl)c2ccccc2)n1C (centres undefined)"
  qualitative label: "inactive"
- compound: "COCC1C=CCCN1C(=O)CCl (centres undefined)"
  qualitative label: "active"
- compound: "COc1cc(Cl)c(C)cc1NC(=O)CCl"
  qualitative label: "active"
- compound: "N#Cc1ccc(CNC(=O)CCl)cc1"
  qualitative label: "active"
- compound: "CC1Cc2ccccc2N1C(=O)CCl (centres undefined)"
  qualitative label: "active"
- compound: "O=C(CCl)N1CCC(C(O)c2ccc(F)cc2)CC1 (centres undefined)"
  qualitative label: "active"
- compound: "CCC1c2ccsc2CCN1C(=O)CCl (centres undefined)"
  qualitative label: "active"
- compound: "COCC[C@@H](NC(=O)CCl)c1ccccc1"
  qualitative label: "active"
- compound: "O=C(CCl)N1CCCCCC1c1ncon1 (centres undefined)"
  qualitative label: "active"
- compound: "C[C@@H](NC(=O)CCl)c1cccc(C#N)c1"
  qualitative label: "active"
- compound: "COc1ccc(-c2csc(NC(=O)CCl)n2)cc1"
  qualitative label: "active"
- compound: "Cl.O=C(CCl)N1CC(c2ccc(Br)cn2)C1"
  qualitative label: "active"
- compound: "Cl.Cn1ncc2c1CC(NC(=O)CCl)CC2 (centres undefined)"
  qualitative label: "active"
- compound: "Cl.O=C(CCl)N1CCc2ncncc2C1"
  qualitative label: "inactive"
- compound: "Cc1cccc(C(CNC(=O)CCl)N2CCOCC2)c1.Cl (centres undefined)"
  qualitative label: "active"
- compound: "CCN(Cc1ccc(C#N)cc1F)C(=O)CCl"
  qualitative label: "active"
- compound: "O=C(CCl)NCc1cccc(F)c1"
  qualitative label: "active"
- compound: "COc1cccc(CN(C)C(=O)CCl)c1"
  qualitative label: "active"
- compound: "NC(=O)C1CCCN(C(=O)CCl)C1 (centres undefined)"
  qualitative label: "active"
- compound: "Cc1cc(C(=O)NC2CCN(C(=O)CCl)CC2)no1"
  qualitative label: "active"
- compound: "O=C(CCl)N1CC2(CCOCC2)C1"
  qualitative label: "active"
- compound: "Cc1cccc(NC(=O)[C@@H]2CCCN2C(=O)CCl)n1"
  qualitative label: "active"
- compound: "O=C(CCl)N1CCN(c2nc3ccccc3o2)CC1"
  qualitative label: "active"
- compound: "Cc1c(NC(=O)CCl)c(=O)n(-c2ccccc2)n1C"
  qualitative label: "active"
- compound: "O=C(CCl)NCc1ccc(N2CCOCC2)c(F)c1"
  qualitative label: "active"
- compound: "NC(=O)C(Cc1ccccc1)NC(=O)CCl (centres undefined)"
  qualitative label: "active"
- compound: "Cl.O=C(CCl)NCCc1ncc(F)cc1F"
  qualitative label: "active"
- compound: "O=C(CCl)Nc1nnc(CC(F)(F)F)o1"
  qualitative label: "active"
- compound: "CS(=O)(=O)c1ccc(CNC(=O)CCl)cc1"
  qualitative label: "active"
- compound: "Cc1ccc(CC(NC(=O)CCl)c2ccccn2)cc1.Cl (centres undefined)"
  qualitative label: "inactive"
- compound: "NC(=O)C1CCCCN1C(=O)CCl (centres undefined)"
  qualitative label: "active"
- compound: "O=C(CCl)N1CCN(C(=O)Nc2ccccc2)CC1"
  qualitative label: "active"
- compound: "O=C(CCl)Nc1cccc(NC(=O)c2ccccc2)c1"
  qualitative label: "active"
- compound: "O=C(CCl)NCC(=O)N1CCCC1"
  qualitative label: "active"
- compound: "O=C(CCl)N1CCN(C(=O)N2CCCCC2)CC1"
  qualitative label: "active"
- compound: "CN1C(=O)c2ccc(NC(=O)CCl)cc2C1=O"
  qualitative label: "active"
- compound: "O=C(CCl)NCCc1cccc2ccccc12"
  qualitative label: "inactive"

###

# system under test: OTUD6B (UniProt Q8N6M0)
# Sequence (Q8N6M0 whole entry, the tested form may be a part): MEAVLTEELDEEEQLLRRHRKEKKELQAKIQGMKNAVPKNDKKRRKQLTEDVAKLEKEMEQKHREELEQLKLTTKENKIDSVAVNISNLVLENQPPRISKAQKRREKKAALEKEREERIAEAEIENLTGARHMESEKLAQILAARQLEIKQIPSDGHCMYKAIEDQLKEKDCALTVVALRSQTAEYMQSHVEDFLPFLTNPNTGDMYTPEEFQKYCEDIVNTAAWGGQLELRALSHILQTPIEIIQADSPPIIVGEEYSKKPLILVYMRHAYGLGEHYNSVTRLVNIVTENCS
# assay name: log2 ratio of Biotin-Ahx-Ub-VS probe labelling (fragment/DMSO); higher = less target engagement (more negative = stronger competition), active = hit call of the paper (q ≤ 0.05, log2 ratio ≤ -1)
# experimental conditions: compound concentration: 200 uM; treatment time: 3 h
Values of log2 ratio of Biotin-Ahx-Ub-VS probe labelling greater than or equal to -0.2 map to t; values below map to f.

- compound: "Cl.Cn1ncc2c1CC(NC(=O)CCl)CC2 (stereo not given)"
  system under test: "OTUD6B (UniProt Q8N6M0)"
  qualitative label: "t"
- compound: "O=C(CCl)NCC(=O)N1CCCC1"
  system under test: "OTUD6B (UniProt Q8N6M0)"
  qualitative label: "t"
- compound: "Cc1ccc(N(CCC#N)C(=O)CCl)cc1C"
  system under test: "OTUD6B (UniProt Q8N6M0)"
  qualitative label: "t"
- compound: "O=C(CCl)N1CCOC(CCc2ccccc2)C1 (stereo not given)"
  system under test: "OTUD6B (UniProt Q8N6M0)"
  qualitative label: "f"
- compound: "Cc1c(C#N)c(NC(=O)CCl)n(Cc2ccco2)c1C"
  system under test: "OTUD6B (UniProt Q8N6M0)"
  qualitative label: "t"
- compound: "NC(=O)C(Cc1ccccc1)NC(=O)CCl (stereo not given)"
  system under test: "OTUD6B (UniProt Q8N6M0)"
  qualitative label: "t"
- compound: "Cc1nc(CC2CCN(C(=O)CCl)CC2)no1"
  system under test: "OTUD6B (UniProt Q8N6M0)"
  qualitative label: "f"
- compound: "NC(=O)C1CCCCN1C(=O)CCl (stereo not given)"
  system under test: "OTUD6B (UniProt Q8N6M0)"
  qualitative label: "t"
- compound: "Cl.Cn1nc2c(c1CNC(=O)CCl)CCCC2"
  system under test: "OTUD6B (UniProt Q8N6M0)"
  qualitative label: "f"
- compound: "Cc1nc(-c2cccc(NC(=O)CCl)c2)cs1"
  system under test: "OTUD6B (UniProt Q8N6M0)"
  qualitative label: "f"
- compound: "O=C(CCl)Nc1cc2c(cc1Cl)OCCCO2"
  system under test: "OTUD6B (UniProt Q8N6M0)"
  qualitative label: "t"
- compound: "O=C(CCl)N(Cc1ccsc1)C1CC1"
  system under test: "OTUD6B (UniProt Q8N6M0)"
  qualitative label: "t"
- compound: "Cc1ccccc1CN(C)C(=O)CCl"
  system under test: "OTUD6B (UniProt Q8N6M0)"
  qualitative label: "f"
- compound: "O=C(CCl)Nc1ccc(N2CCCC2=O)cc1"
  system under test: "OTUD6B (UniProt Q8N6M0)"
  qualitative label: "t"
- compound: "O=C(CCl)N1CCC(S(=O)(=O)c2ccc(F)cc2)CC1"
  system under test: "OTUD6B (UniProt Q8N6M0)"
  qualitative label: "t"
- compound: "COc1ccccc1C(C)NC(=O)CCl (stereo not given)"
  system under test: "OTUD6B (UniProt Q8N6M0)"
  qualitative label: "f"
- compound: "O=C(CCl)NCCc1ccc(F)cc1"
  system under test: "OTUD6B (UniProt Q8N6M0)"
  qualitative label: "t"
- compound: "Cc1ccc(N2CCC(NC(=O)CCl)C2=O)cc1 (stereo not given)"
  system under test: "OTUD6B (UniProt Q8N6M0)"
  qualitative label: "t"
- compound: "O=C(CCl)Nc1cccc(C(=O)N2CCSCC2)c1"
  system under test: "OTUD6B (UniProt Q8N6M0)"
  qualitative label: "t"
- compound: "Cl.O=C(CCl)N1CCn2ncc(O)c2C1"
  system under test: "OTUD6B (UniProt Q8N6M0)"
  qualitative label: "f"
- compound: "O=C(CCl)NCCc1ccc2c(c1)OCCO2"
  system under test: "OTUD6B (UniProt Q8N6M0)"
  qualitative label: "f"
- compound: "Cc1ccc2nnc(CNC(=O)CCl)n2c1"
  system under test: "OTUD6B (UniProt Q8N6M0)"
  qualitative label: "t"
- compound: "O=C(CCl)Nc1cc2c(cc1Cl)OCCO2"
  system under test: "OTUD6B (UniProt Q8N6M0)"
  qualitative label: "t"
- compound: "CC(NC(=O)CCl)c1cnn(C2CC2)c1 (stereo not given)"
  system under test: "OTUD6B (UniProt Q8N6M0)"
  qualitative label: "t"
- compound: "CN(C(=O)CCl)c1nc2ccccc2s1"
  system under test: "OTUD6B (UniProt Q8N6M0)"
  qualitative label: "f"
- compound: "CC(=O)C1CCCCN1C(=O)CCl (stereo not given)"
  system under test: "OTUD6B (UniProt Q8N6M0)"
  qualitative label: "t"
- compound: "CCN(Cc1ccc(C#N)cc1F)C(=O)CCl"
  system under test: "OTUD6B (UniProt Q8N6M0)"
  qualitative label: "f"
- compound: "O=C(CCl)NC1CCS(=O)(=O)c2ccccc21 (stereo not given)"
  system under test: "OTUD6B (UniProt Q8N6M0)"
  qualitative label: "f"
- compound: "Cc1ccc(C(=O)NCCNC(=O)CCl)cc1"
  system under test: "OTUD6B (UniProt Q8N6M0)"
  qualitative label: "t"
- compound: "O=C(CCl)NC1CCN(C(=O)C2CCCCC2)CC1"
  system under test: "OTUD6B (UniProt Q8N6M0)"
  qualitative label: "t"
- compound: "CNC(=O)Cn1cc(NC(=O)CCl)cn1"
  system under test: "OTUD6B (UniProt Q8N6M0)"
  qualitative label: "f"
- compound: "CNC(=O)C1CCN(C(=O)CCl)CC1"
  system under test: "OTUD6B (UniProt Q8N6M0)"
  qualitative label: "t"
- compound: "O=C(CN1CCN(C(=O)CCl)CC1)Nc1cccc(F)c1"
  system under test: "OTUD6B (UniProt Q8N6M0)"
  qualitative label: "f"
- compound: "C[C@@H](NC(=O)CCl)c1cccc(C#N)c1"
  system under test: "OTUD6B (UniProt Q8N6M0)"
  qualitative label: "t"
- compound: "Cc1nnc(C(NC(=O)CCl)c2ccccc2)n1C (stereo not given)"
  system under test: "OTUD6B (UniProt Q8N6M0)"
  qualitative label: "t"
- compound: "CN(CCc1ncc(Br)cn1)C(=O)CCl.Cl"
  system under test: "OTUD6B (UniProt Q8N6M0)"
  qualitative label: "f"
- compound: "Cc1ccc(CC(CO)CNC(=O)CCl)cc1 (stereo not given)"
  system under test: "OTUD6B (UniProt Q8N6M0)"
  qualitative label: "f"
- compound: "O=C(CCl)Nc1cccc2ncccc12"
  system under test: "OTUD6B (UniProt Q8N6M0)"
  qualitative label: "t"
- compound: "Cc1ccc(C)c(Oc2ccc(CNC(=O)CCl)cn2)c1.Cl"
  system under test: "OTUD6B (UniProt Q8N6M0)"
  qualitative label: "t"
